// provenance: ChEMBL document CHEMBL2321876

Assay explanation: Displacement of Fl-Sal-AMS from Acinetobacter baumanni BasE expressed in Escherichia coli after 30 mins by fluorescence polarization assay
Design: species or system Acinetobacter baumannii
Condition: read-out: Kd
pKd: −log10 of the molar value.
Reported endpoint: pKd

[[record]]
line_notation = "O=C(O)c1cc(-c2ccc3[nH]ccc3c2)nc2c1cnn2Cc1ccncc1"
reported_endpoint = "pKd"
readout_qualifier = "="
observed = 7.21

[[record]]
line_notation = "O=C(O)c1cc(-c2ccccc2Cl)nc2c1cnn2Cc1ccncc1"
reported_endpoint = "pKd"
readout_qualifier = "="
observed = 5.61

[[record]]
line_notation = "CC(C)NC(=O)c1cc(-c2ccccc2)nc2c1cnn2Cc1ccncc1"
reported_endpoint = "pKd"
readout_qualifier = "="
observed = 6.79

[[record]]
line_notation = "Cc1cccc(-c2cc(C(=O)O)c3cnn(Cc4ccncc4)c3n2)c1"
reported_endpoint = "pKd"
readout_qualifier = "="
observed = 6.80

[[record]]
line_notation = "O=C(O)c1cc(-c2ccc(F)cc2F)nc2c1cnn2Cc1ccncc1"
reported_endpoint = "pKd"
readout_qualifier = "="
observed = 7.37

[[record]]
line_notation = "O=C(O)c1cc(/C=C/c2ccccc2)nc2c1cnn2Cc1ccncc1"
reported_endpoint = "pKd"
readout_qualifier = "="
observed = 6.55

[[record]]
line_notation = "CCCCCCCCOc1ccc(-c2cc(C(=O)O)c3cnn(Cc4ccncc4)c3n2)cc1"
reported_endpoint = "pKd"
readout_qualifier = "="
observed = 6.72

[[record]]
line_notation = "O=C(O)c1cc(-c2ccccc2)cc2c1cnn2Cc1ccncc1"
reported_endpoint = "pKd"
readout_qualifier = "="
observed = 7.07

[[record]]
line_notation = "O=c1cc(-c2ccccc2)[nH]c2c1cnn2Cc1ccncc1"
reported_endpoint = "pKd"
readout_qualifier = "<"
observed = 4.00

[[record]]
line_notation = "O=C(O)c1cc(-c2cccnc2)nc2c1cnn2Cc1ccncc1"
reported_endpoint = "pKd"
readout_qualifier = "="
observed = 6.88

[[record]]
line_notation = "O=C(O)c1cc(=O)[nH]c2c1cnn2Cc1ccncc1"
reported_endpoint = "pKd"
readout_qualifier = "<"
observed = 4.00

[[record]]
line_notation = "O=C(O)c1cc(-c2ccccc2)nc2[nH]ncc12"
reported_endpoint = "pKd"
readout_qualifier = "<"
observed = 4.00

[[record]]
line_notation = "O=C(O)c1cc(-c2ccccc2-c2ccccc2Cl)nc2c1cnn2Cc1ccncc1"
reported_endpoint = "pKd"
readout_qualifier = "="
observed = 4.71

[[record]]
line_notation = "COc1ccc(-c2cc(C(=O)O)c3cnn(Cc4ccncc4)c3n2)cc1"
reported_endpoint = "pKd"
readout_qualifier = "="
observed = 7.11

[[record]]
line_notation = "Cc1ccsc1-c1cc(C(=O)O)c2cnn(Cc3ccncc3)c2n1"
reported_endpoint = "pKd"
readout_qualifier = "="
observed = 6.47

[[record]]
line_notation = "C#Cc1cc(C(=O)O)c2cnn(Cc3ccncc3)c2n1"
reported_endpoint = "pKd"
readout_qualifier = "="
observed = 5.69

[[record]]
line_notation = "O=C(O)c1cc(-c2ccc(F)cc2)nc2c1cnn2Cc1ccncc1"
reported_endpoint = "pKd"
readout_qualifier = "="
observed = 7.55

[[record]]
line_notation = "Nc1ccc(-c2cc(C(=O)O)c3cnn(Cc4ccncc4)c3n2)cc1"
reported_endpoint = "pKd"
readout_qualifier = "="
observed = 7.11

[[record]]
line_notation = "CCCCCCCCCCCCOc1ccc(-c2cc(C(=O)O)c3cnn(Cc4ccncc4)c3n2)cc1"
reported_endpoint = "pKd"
readout_qualifier = "="
observed = 4.55

[[record]]
line_notation = "Cc1ccc(-c2cc(C(=O)O)c3cnn(Cc4ccncc4)c3n2)cc1"
reported_endpoint = "pKd"
readout_qualifier = "="
observed = 6.67

[[record]]
line_notation = "NC(=O)c1ccc(-c2cc(C(=O)O)c3cnn(Cc4ccncc4)c3n2)cc1"
reported_endpoint = "pKd"
readout_qualifier = "="
observed = 6.54

[[record]]
line_notation = "COc1cc(-c2cc(C(=O)O)c3cnn(Cc4ccncc4)c3n2)ccc1C(=O)O"
reported_endpoint = "pKd"
readout_qualifier = "="
observed = 5.77

[[record]]
line_notation = "O=C(O)c1cc(-c2ccc(O)cc2)nc2c1cnn2Cc1ccncc1"
reported_endpoint = "pKd"
readout_qualifier = "="
observed = 8.05

[[record]]
line_notation = "COc1ccc(Cn2ncc3c(C(=O)O)cc(Nc4ccccc4)nc32)cc1"
reported_endpoint = "pKd"
readout_qualifier = "<"
observed = 4.00

[[record]]
line_notation = "O=C(O)c1cc(-c2cccs2)nc2c1cnn2Cc1ccncc1"
reported_endpoint = "pKd"
readout_qualifier = "="
observed = 6.35

[[record]]
line_notation = "Cc1csc(-c2cc(C(=O)O)c3cnn(Cc4ccncc4)c3n2)c1"
reported_endpoint = "pKd"
readout_qualifier = "="
observed = 7.06

[[record]]
line_notation = "CCCNC(=O)c1cc(-c2ccccc2)nc2c1cnn2Cc1ccncc1"
reported_endpoint = "pKd"
readout_qualifier = "="
observed = 6.60

[[record]]
line_notation = "O=C(O)c1cc(-c2ccccc2)cc2nn(Cc3ccncc3)cc12"
reported_endpoint = "pKd"
readout_qualifier = "="
observed = 4.18

[[record]]
line_notation = "O=C(O)c1cc(-c2cccc(-c3ccccc3)c2)nc2c1cnn2Cc1ccncc1"
reported_endpoint = "pKd"
readout_qualifier = "="
observed = 6.79

[[record]]
line_notation = "C=Cc1cc(C(=O)O)c2cnn(Cc3ccncc3)c2n1"
reported_endpoint = "pKd"
readout_qualifier = "="
observed = 5.72

[[record]]
line_notation = "O=C(O)c1cc(-c2ccccc2)nc2c1cnn2Cc1ccccc1"
reported_endpoint = "pKd"
readout_qualifier = "<"
observed = 4.00

[[record]]
line_notation = "NC(=O)c1cc(-c2ccccc2)nc2c1cnn2Cc1ccncc1"
reported_endpoint = "pKd"
readout_qualifier = "="
observed = 7.18

[[record]]
line_notation = "O=C(O)c1cc(-c2cccc3cccnc23)nc2c1cnn2Cc1ccncc1"
reported_endpoint = "pKd"
readout_qualifier = "="
observed = 6.11

[[record]]
line_notation = "O=C(O)c1cc(-c2ccccc2)nc2c1cnn2Cc1ccc(O)cc1"
reported_endpoint = "pKd"
readout_qualifier = "="
observed = 6.25

[[record]]
line_notation = "O=C(O)c1cc(-c2ccccc2)nc2c1cnn2Cc1ccco1"
reported_endpoint = "pKd"
readout_qualifier = "<"
observed = 4.00

[[record]]
line_notation = "O=C(O)c1cc(-c2ccccc2)cc2c1ccn2Cc1ccncc1"
reported_endpoint = "pKd"
readout_qualifier = "="
observed = 4.28

[[record]]
line_notation = "OCc1cc(-c2ccccc2)nc2c1cnn2Cc1ccncc1"
reported_endpoint = "pKd"
readout_qualifier = "="
observed = 6.99

[[record]]
line_notation = "CNC(=O)c1cc(-c2ccccc2)nc2c1cnn2Cc1ccncc1"
reported_endpoint = "pKd"
readout_qualifier = "="
observed = 6.38

[[record]]
line_notation = "Cc1ccccc1-c1cc(C(=O)O)c2cnn(Cc3ccncc3)c2n1"
reported_endpoint = "pKd"
readout_qualifier = "="
observed = 5.67

[[record]]
line_notation = "O=C(O)c1cc(-c2ccc(-c3ccccc3)cc2)nc2c1cnn2Cc1ccncc1"
reported_endpoint = "pKd"
readout_qualifier = "="
observed = 6.90

[[record]]
line_notation = "O=C(O)c1cc(NCc2ccccc2)nc2c1cnn2Cc1ccncc1"
reported_endpoint = "pKd"
readout_qualifier = "="
observed = 5.63

[[record]]
line_notation = "O=C(O)c1cc(NCCCO)nc2c1cnn2Cc1ccncc1"
reported_endpoint = "pKd"
readout_qualifier = "="
observed = 5.61

[[record]]
line_notation = "O=C(O)c1cc(-c2ccc(OCc3ccccc3)cc2)nc2c1cnn2Cc1ccncc1"
reported_endpoint = "pKd"
readout_qualifier = "="
observed = 8.67

[[record]]
line_notation = "O=C(O)c1cc(-c2cncnc2)nc2c1cnn2Cc1ccncc1"
reported_endpoint = "pKd"
readout_qualifier = "="
observed = 6.23

[[record]]
line_notation = "O=C(O)c1cc(-c2ccc(CO)cc2)nc2c1cnn2Cc1ccncc1"
reported_endpoint = "pKd"
readout_qualifier = "="
observed = 6.61

